Test system: Streptococcus pyogenes
Assay: Antibacterial activity against erythromycin-susceptible Streptococcus pyogenes after 24 h by NCCLS broth microdilution method
Type: functional
Property: MIC; scope: individual compounds
API: value field is a number in µg/mL; no unit string.

The cases that follow already have their MIC on record.
CC[C@H]1OC(=O)[C@H](C)C(=O)[C@H](C)[C@@H](O[C@@H]2O[C@H](C)C[C@H](N(C)C)[C@H]2O)[C@](C)(OC)C[C@@H](C)C(=O)[C@H](C)[C@@H](OC(=O)NCCNC(=O)c2ccc([N+](=O)[O-])cc2)[C@]1(C)O 0.25
CC[C@H]1OC(=O)[C@H](C)C(=O)[C@H](C)[C@@H](O[C@@H]2O[C@H](C)C[C@H](N(C)C)[C@H]2O)[C@](C)(OC)C[C@@H](C)C(=O)[C@H](C)[C@@H](OC(=O)NCCNC(=O)c2cc([N+](=O)[O-])cc([N+](=O)[O-])c2)[C@]1(C)O 0.125
CC[C@H]1OC(=O)[C@H](C)C(=O)[C@H](C)[C@@H](O[C@@H]2O[C@H](C)C[C@H](N(C)C)[C@H]2O)[C@](C)(OC)C[C@@H](C)C(=O)[C@H](C)[C@@H](OC(=O)NCCNC(=O)c2ccc([N+](=O)[O-])cc2N)[C@]1(C)O 0.5
CC[C@H]1OC(=O)[C@H](C)C(=O)[C@H](C)[C@@H](O[C@@H]2O[C@H](C)C[C@H](N(C)C)[C@H]2O)[C@](C)(OC)C[C@@H](C)C(=O)[C@H](C)[C@@H](OC(=O)NCCNC(=O)/C=C/c2ccco2)[C@]1(C)O 4
CC[C@H]1OC(=O)[C@H](C)C(=O)[C@H](C)[C@@H](O[C@@H]2O[C@H](C)C[C@H](N(C)C)[C@H]2O)[C@](C)(OC)C[C@@H](C)C(=O)[C@H](C)[C@@H](OC(=O)NCCNC(=O)/C=C/c2ccccc2Cl)[C@]1(C)O 2
CC[C@H]1OC(=O)[C@H](C)C(=O)[C@H](C)[C@@H](O[C@@H]2O[C@H](C)C[C@H](N(C)C)[C@H]2O)[C@](C)(OC)C[C@@H](C)C(=O)[C@H](C)[C@@H](OC(=O)NCCNC(=O)c2ccc(Br)cc2)[C@]1(C)O 2
CC[C@H]1OC(=O)[C@H](C)C(=O)[C@H](C)[C@@H](O[C@@H]2O[C@H](C)C[C@H](N(C)C)[C@H]2O)[C@](C)(OC)C[C@@H](C)C(=O)[C@H](C)[C@@H](OC(=O)NCCNC(=O)c2ccc(OC)cc2)[C@]1(C)O 2

Next:
Lab book: MIC of CC[C@H]1OC(=O)[C@H](C)C(=O)[C@H](C)[C@@H](O[C@@H]2O[C@H](C)C[C@H](N(C)C)[C@H]2O)[C@](C)(OC)C[C@@H](C)C(=O)[C@H](C)[C@@H](OC(=O)NCCNC(=O)c2ccc(C(C)(C)C)cc2)[C@]1(C)O noted as 16

---

Test system: Streptococcus pneumoniae
Experiment: Antibacterial activity against erythromycin-resistant Streptococcus pneumoniae A22072 harboring mef gene after 24 h by NCCLS broth microdilution method
Format: functional
Conditions: A22072, 24 h
measure.name: MIC (µg/mL)
API: value field is a number in µg/mL; no unit string.

CC[C@H]1OC(=O)[C@H](C)C(=O)[C@H](C)[C@@H](O[C@@H]2O[C@H](C)C[C@H](N(C)C)[C@H]2O)[C@](C)(OC)C[C@@H](C)C(=O)[C@H](C)[C@@H](OC(=O)NCCNC(=O)/C=C/c2ccc([N+](=O)[O-])cc2)[C@]1(C)O 1

Next:
The measured MIC that CC[C@H]1OC(=O)[C@H](C)C(=O)[C@H](C)[C@@H](O[C@@H]2O[C@H](C)C[C@H](N(C)C)[C@H]2O)[C@](C)(OC)C[C@@H](C)C(=O)[C@H](C)[C@@H](OC(=O)NCCNC(=O)/C=C/c2ccc(F)cc2)[C@]1(C)O showed for Streptococcus pneumoniae is 4
